test system: HOP-18; test: NCI tumour cell line growth inhibition, 48 h
Calls of active or inactive are those of the source. Cut-off read from the data, not from the text of the source: active = GI50 up to about 1.1 µM and inactive = higher.

{"molecule": "COC(=O)c1ccc(OCc2ccc3oc(=O)c(-c4ccccc4)nc3c2)cc1", "study.target": "HOP-18", "GI50": "> 100 µM (inactive)"}
{"molecule": "CCNC(=O)C#CC(=O)NCC", "study.target": "HOP-18", "GI50": "> 100 µM (inactive)"}
{"molecule": "CC1NOC(=O)C1/N=N/c1ccc(Cl)cc1Cl (stereo unspecified)", "study.target": "HOP-18", "GI50": "18.5 µM (inactive)"}
{"molecule": "COCC(=O)OC1CCn2c1nc1c2C(=O)C(C)=C(NC(C)=O)C1=O (stereo unspecified)", "study.target": "HOP-18", "GI50": "27.9 µM (inactive)"}
{"molecule": "COC(=O)/C(=C\\c1ccc(N(CCC#N)CCC#N)cc1)NC(=O)c1cc([N+](=O)[O-])ccc1Cl", "study.target": "HOP-18", "GI50": "> 100 µM (inactive)"}
{"molecule": "O=C1NC2(CCCCCC2)C2CCCCCCC12O (stereo unspecified)", "study.target": "HOP-18", "GI50": "> 100 µM (inactive)"}

The reported numbers originate from ChEMBL document CHEMBL1201862.
